Note to self: these compounds have pKi reported for 5-hydroxytryptamine receptor 1B (Homo sapiens, UniProt P28222) in various publications.
pKi: −log10 of the molar value.
endpoint: pKi

// known answers, use as guide
CC(=O)Nc1ccccc1CN1CCN(CCOc2cccc3nc(C)ccc23)CC1; 5.80
CCCCOc1ccc(-c2nn3c(C)cc(C)nc3c2CC(=O)N(CC)CC)cc1; 5.80
O=C(Nc1ccc2[nH]cc(C3CCN(CCOCCOCCOCCN4CCC(c5c[nH]c6ccc(NC(=O)c7ccc(F)cc7)cc56)CC4)CC3)c2c1)c1ccc(F)cc1; 7.49
C[C@@H]1CN(c2cccc3cc(F)ccc23)CCN1CCC1OCCc2cc(C(N)=O)ccc21 (some centres undefined); 6.55
O=S(=O)(c1ccc2cc[nH]c2c1)N1CCC[C@@H]1CCN1CCC(Oc2ccc(Cl)cc2)CC1; 6.20
CN1CCC(c2c[nH]c3ccc(NC(=O)CCCCCCCCCCCCCCC(=O)Nc4ccc5[nH]cc(C6CCN(C)CC6)c5c4)cc23)CC1; 9.09

1 = Cc1ccc2c(OCCN3CCN(Cc4ccc(Cl)c(Cl)c4)CC3)cccc2n1
2 = Cc1ccc2c(OCCN3CCC(Cc4cccc(N5CCCC5=O)c4)CC3)cccc2n1
Ask: Pick one: 1 or 2 . Which has the bigger pKi number? Label of pick, please.
Reply: 2
(2: 7.70, 1: 5.70)
